# Study System: UDP-3-O-acyl-N-acetylglucosamine deacetylase (Pseudomonas aeruginosa (strain ATCC 15692 / PAO1 / 1C / PRS 101 / LMG12228), UniProt P47205)
# Sequence (P47205 whole entry): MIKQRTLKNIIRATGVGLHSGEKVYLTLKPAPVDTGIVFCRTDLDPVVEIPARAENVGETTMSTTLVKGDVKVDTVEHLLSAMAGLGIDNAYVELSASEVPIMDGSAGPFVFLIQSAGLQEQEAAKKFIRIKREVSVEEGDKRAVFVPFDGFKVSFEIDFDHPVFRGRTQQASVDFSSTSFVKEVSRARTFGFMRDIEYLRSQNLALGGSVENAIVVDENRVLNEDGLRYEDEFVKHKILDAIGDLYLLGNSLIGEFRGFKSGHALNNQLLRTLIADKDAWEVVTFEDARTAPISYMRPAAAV
# Test Protocol: At the end of 1 hour, 5 ul of 1N HCl was added to stop the enzyme reaction; the plates were centrifuged, and then processed with the BioTrove Rapidfire HTMS Mass Spectrometry System.

# Compound, IC50 / nM
measured = [
    ("CC(CCc1ccc(OCc2nc(Cc3cc(F)ccc3F)no2)cc1)(C(=O)NO)S(C)(=O)=O (stereo not drawn)", 0.714),
    ("CC(CCc1ccc(OCc2nc(-c3cccc(F)c3)no2)cc1)(C(=O)NO)S(C)(=O)=O (stereo not drawn)", 3.81),
    ("CC(CCc1ccc(OCCCC2CCCCC2)cc1)(C(=O)NO)S(C)(=O)=O (stereo not drawn)", 4.56),
]
